The reader will find reported TGI values listed item by item below.
- Test system: HT29 colon
- PROTOCOL_SUMMARY: NCI tumour cell line growth inhibition, 48 h

Dear colleague, I am looking for the recorded TGI of the following compound: O=C1OC(c2ccc(O)cc2)(c2ccc(O)cc2)c2cccc3cccc1c23
39.6 µM

Given the compound COc1cc(C2SCC(=O)N2NC(=O)c2ccc(NC(C)=O)cc2)cc(OC)c1OC (centres undefined) , what is its reported TGI?
> 100 µM

Data request, read-out TGI, for COc1cc(S(=O)(=O)Nc2nc(-c3ccc(N4C(=O)/C(=C/c5ccccc5)N=C4c4ccccc4)cc3)cs2)ccc1Cl
> 100 µM

Entry CC(CC(=O)O)(CC(=O)O)C(=O)O has what TGI?
> 100 µM

Data request, read-out TGI, for Cc1nnc2n1N=C(CC(=O)c1ccc(O)cc1O)CN2N
> 100 µM

---
I am curious: what TGI value has been reported for Cc1ccc(NC(=O)CCC(=O)C2CC(=O)CC/C2=N\NC(=O)c2cc3ccccc3cc2O)cc1C (centres undefined) ?
> 100 µM

Which TGI value belongs to COC(=O)Cc1c(C2=Nc3ccccc3C2(O)CC(=O)OC)[nH]c2ccccc12 (centres undefined) ?
> 100 µM

# get_value(readout='TGI', item= C=C1C(=O)O[C@H]2C1[C@H](OC(=O)/C(C)=C\COC(C)=O)C[C@]1(CO1)[C@@H]1[C@H](O)[C@H]3O[C@@]3(C)[C@@H]12 (some centres undefined) )
40.8 µM

What does the data say about its TGI? Entry: O=C1CSC2(CC(/C=C/C=C/c3ccccc3)=NN2c2cccc(S(=O)(=O)O)c2)N1c1nc2ccccc2s1 (centres undefined)
> 100 µM

For the compound Cc1cc(N(CCC#N)S(=O)(=O)c2ccccc2)ccc1C=O , what TGI is on record?
> 100 µM

Entry Cc1ccc(S(=O)(=O)Nn2c(-c3ccccc3)c(C#N)c(-c3ccc([N+](=O)[O-])cc3)c(C#N)c2=O)cc1 : reported TGI = ?
> 100 µM

Entry Cc1cnc(Cl)nc1C(C#N)c1nc2ccccc2n1C (centres undefined) has what TGI?
> 100 µM

Which measured TGI value corresponds to Cc1ccc([P+](Cc2ccc([N+](=O)[O-])cc2)(c2ccc(C)cc2)c2ccc(C)cc2)cc1 ?
12.8 µM

Form field: reported TGI of CCOC(=O)CCC1(C(=O)OC)CCCC1=O (centres undefined)
> 100 µM
